- Test system: NCI-H522 lung
- assayText: NCI-60 one-dose screen, 48 h
- experimentalConditions: 10 µM unless noted
About 83,000 compounds went through this panel and 20% of them were active in at least one assay; those are over-represented in the sample as a whole. Calls of active or inactive are those of the source. How the source made its calls: active means growth percent below 10; inactive means the rest.
Please state which outcome applies, choosing from label 1 for active, label 0 for inactive

Before answering, review these 10 worked examples.
Q: Hi, sorry to bother you, what did the test record for COc1ccc(/C=C/C(=O)c2cc3c(N)c(C(=O)Nc4cccc5ccccc45)sc3nc2C)cc1 ?
Ans: label 0

Q: Hi, sorry to bother you, what did the test record for CC(C)(Sc1cc(C(C)(C)C)c(O)c(C(C)(C)C)c1)Sc1cc(C(C)(C)C)c(OC(=O)CCCC(=O)O)c(C(C)(C)C)c1 ?
Ans: label 0

Q: Hi, sorry to bother you, what did the test record for CC/C=C\C[C@H](O)C/C=C1/C(=O)C=C[C@@H]1C/C=C\CCCC(=O)N(C)C ?
Ans: label 1

Q: Hi, sorry to bother you, what did the test record for CCOC(=O)C(=O)C(C(=O)OCC)c1ccccc1 (stereo not given) ?
Ans: label 0

Q: Hi, sorry to bother you, what did the test record for COC(=O)[C@]1(C)CCC[C@]2(C)[C@H]3C[C@H]4C(C(C)C)=C[C@]3(CC[C@H]21)[C@@H]1C(=O)CC[C@H](OCCC#N)[C@@H]14 ?
Ans: label 0

Q: Hi, sorry to bother you, what did the test record for NC(=O)c1cc(I)ccc1NC(=O)/C=C/c1ccccc1 ?
Ans: label 1

Q: Hi, sorry to bother you, what did the test record for CC(C)=CCCC(C)c1ccc(C)c2c1OCN(CCCCCO)C2 (stereo not given) ?
Ans: label 1

Q: Hi, sorry to bother you, what did the test record for CCOC(=O)C1=C(c2ccccc2)N=C2SC=C(c3ccc(Cl)cc3)N2C1c1ccc(Cl)cc1 (stereo not given) ?
Ans: label 0

Q: Hi, sorry to bother you, what did the test record for CCCNC(=O)Nc1ccc2cc3ccc(NC(=O)NCCC)cc3nc2c1 ?
Ans: label 0

Q: Hi, sorry to bother you, what did the test record for COc1ccc(Nc2nc(-c3cc(O)c(C)c(C)c3O)cs2)cc1 ?
Ans: label 0

New cases:
Q: Hi, sorry to bother you, what did the test record for CCOC(=O)n1cc(-c2nonc2-c2cn(C(=O)OCC)c3ccc(Br)cc23)c2ccccc21 ?
Ans: label 0

----------
- System: MALME-3M melanoma
- assayText: NCI-60 one-dose screen, 48 h
- experimentalConditions: 10 µM unless noted
This is part of a sample that, as a whole, favours compounds with a hit. Of some 83,000 tested, about 20% had one in any assay. Activity calls are given as the source filed them. Rule for the calls: active = growth percent below 10; inactive = the rest.
Please state which outcome applies, choosing from active, inactive

Q: Hi, sorry to bother you, what did the test record for O=C(O)CCCN1C(=O)/C(=C/c2cn(-c3ccccc3)nc2-c2ccc([N+](=O)[O-])cc2)SC1=S ?
Ans: inactive

Q: Hi, sorry to bother you, what did the test record for COC(=O)c1cc(N=C2NC(=O)/C(=C/C=C/c3ccccc3)S2)ccc1O ?
Ans: inactive

Q: Hi, sorry to bother you, what did the test record for COC1=CC(c2ccc[nH]2)=N/C1=C\c1[nH]c(C)c(C(=O)OC(C)C)c1C ?
Ans: active

New cases:
Q: Hi, sorry to bother you, what did the test record for O=C(N/N=C/c1c(Cl)cccc1Cl)c1cccnc1Nc1cccc(C(F)(F)F)c1 ?
Ans: inactive
